molecular target: Heat shock protein HSP 90 (Mus musculus); test: Binding affinity to Hsp90 in mouse lung tissue

{"Smiles Record": "CC(C)NCCCn1c(Cc2cc3c(cc2I)OCO3)nc2c(N)nc(F)nc21", "EC50, nM": 2400}

---

target: Heat shock protein HSP 90 (Mus musculus); assay: Binding affinity to Hsp90 in mouse heart tissue
pEC50: −log10 of the molar value.

{"Smiles Record": "CC(C)NCCCn1c(Cc2cc3c(cc2I)OCO3)nc2c(N)nc(F)nc21", "pEC50": 5.16}

---

molecular target: Heat shock protein HSP 90-beta (Homo sapiens, UniProt P08238); experiment: Inhibitory activity against Hsp90 in human breast cancer MDA-MB-468 cell line; format: cell-based
Sequence (P08238 whole entry): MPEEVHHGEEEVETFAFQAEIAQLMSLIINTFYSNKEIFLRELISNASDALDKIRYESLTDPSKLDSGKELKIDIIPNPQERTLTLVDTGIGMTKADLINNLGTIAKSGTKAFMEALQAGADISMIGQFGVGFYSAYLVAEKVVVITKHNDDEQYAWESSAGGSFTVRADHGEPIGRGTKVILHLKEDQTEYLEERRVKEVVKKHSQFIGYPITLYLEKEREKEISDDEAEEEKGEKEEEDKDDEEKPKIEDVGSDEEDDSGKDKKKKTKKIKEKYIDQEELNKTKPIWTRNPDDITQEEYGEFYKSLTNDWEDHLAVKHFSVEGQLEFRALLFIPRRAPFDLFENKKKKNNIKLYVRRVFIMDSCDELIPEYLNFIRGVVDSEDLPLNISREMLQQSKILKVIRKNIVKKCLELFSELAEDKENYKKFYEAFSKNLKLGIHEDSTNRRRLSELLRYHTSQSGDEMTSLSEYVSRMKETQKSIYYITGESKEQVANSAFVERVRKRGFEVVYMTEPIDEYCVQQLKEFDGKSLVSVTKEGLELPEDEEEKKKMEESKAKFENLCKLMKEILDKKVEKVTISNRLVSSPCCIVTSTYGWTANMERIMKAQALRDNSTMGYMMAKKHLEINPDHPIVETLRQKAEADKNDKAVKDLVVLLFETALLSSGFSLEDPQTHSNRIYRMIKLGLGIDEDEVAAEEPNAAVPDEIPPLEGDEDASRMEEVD
Recorded EC50 by entry

{"Smiles Record": "C#CCCCn1c(Sc2cc3c(cc2Br)OCO3)nc2c(N)ncnc21", "Qualifier Operator": "=", "EC50 / nM": 77.1}
{"Smiles Record": "C#CCCCn1c(Cc2cc(OC)c(OC)cc2Br)nc2c(N)nc(F)nc21", "Qualifier Operator": ">", "EC50 / nM": 15000}
{"Smiles Record": "C#CCCCn1c(Cc2cc3c(cc2Br)OCO3)nc2c(N)nc(F)nc21", "Qualifier Operator": "=", "EC50 / nM": 30.5}
{"Smiles Record": "C#CCCCn1c(Sc2cc3c(cc2I)OCO3)nc2c(N)ncnc21", "Qualifier Operator": "=", "EC50 / nM": 10.9}

---

target: Heat shock protein HSP 90-beta (Homo sapiens); experiment: Inhibitory activity against Hsp90 in human breast cancer MDA-MB-468 cell line; assay type: cell-based
Property: EC50 (nM)

{"Smiles Record": "C#CCCCn1c(Cc2cc(OC)c(OC)cc2Cl)nc2c(N)nc(F)nc21", "Unit Label": "nM", "Qualifier Operator": "=", "Measurement": 4500}
{"Smiles Record": "C#CCCCn1c(Cc2cc3c(cc2Cl)OCO3)nc2c(N)nc(F)nc21", "Unit Label": "nM", "Qualifier Operator": "=", "Measurement": 51.2}
{"Smiles Record": "C#CCCCn1c(Cc2cc3c(cc2I)OCO3)nc2c(N)nc(F)nc21", "Unit Label": "nM", "Qualifier Operator": "=", "Measurement": 23.7}
{"Smiles Record": "CC(C)NCCCn1c(Cc2cc3c(cc2I)OCO3)nc2c(N)nc(F)nc21", "Unit Label": "nM", "Qualifier Operator": "=", "Measurement": 39.1}
{"Smiles Record": "C#CCCCn1c(Cc2cc(OC)c(OC)cc2I)nc2c(N)nc(F)nc21", "Unit Label": "nM", "Qualifier Operator": ">", "Measurement": 15000}

---

system: MDA-MB-468; assay: Antimitotic activity in human breast cancer MDA-MB-468 cell line; format: functional, cell-based
Lab note: cut-off is 300 nM. Strictly less in IC50 is Satisfied. Exactly 300 nM or more is Not satisfied.

{"Smiles Record": "C#CCCCn1c(Cc2cc(OC)c(OC)cc2Cl)nc2c(N)nc(F)nc21", "Assigned Category": "Not satisfied"}
{"Smiles Record": "C#CCCCn1c(Cc2cc(OC)c(OC)cc2I)nc2c(N)nc(F)nc21", "Assigned Category": "Not satisfied"}
{"Smiles Record": "C#CCCCn1c(Sc2cc3c(cc2I)OCO3)nc2c(N)ncnc21", "Assigned Category": "Satisfied"}
{"Smiles Record": "CC(C)NCCCn1c(Sc2cc3c(cc2I)OCO3)nc2c(N)ncnc21", "Assigned Category": "Satisfied"}
{"Smiles Record": "C#CCCCn1c(Cc2cc3c(cc2I)OCO3)nc2c(N)nc(F)nc21", "Assigned Category": "Satisfied"}
{"Smiles Record": "C#CCCCn1c(Cc2cc(OC)c(OC)cc2Br)nc2c(N)nc(F)nc21", "Assigned Category": "Not satisfied"}
{"Smiles Record": "C#CCCCn1c(Cc2cc3c(cc2Cl)OCO3)nc2c(N)nc(F)nc21", "Assigned Category": "Not satisfied"}
{"Smiles Record": "CC(C)NCCCn1c(Sc2cc3c(cc2Br)OCO3)nc2c(N)ncnc21", "Assigned Category": "Not satisfied"}
{"Smiles Record": "CC(C)NCCCn1c(Cc2cc3c(cc2I)OCO3)nc2c(N)nc(F)nc21", "Assigned Category": "Satisfied"}
{"Smiles Record": "C#CCCCn1c(Cc2cc3c(cc2Br)OCO3)nc2c(N)nc(F)nc21", "Assigned Category": "Not satisfied"}
{"Smiles Record": "C#CCCCn1c(Sc2cc3c(cc2Br)OCO3)nc2c(N)ncnc21", "Assigned Category": "Not satisfied"}
